# Test system: tongue of human volunteers
# Test Name: Cooling sensations when applied to the tongue of human volunteers
# Assay type: in vivo
# Measurement Context: reciprocal of threshold, normalized to unity for analogs with 1.25 μg/ml
Reported Metric: Relative Potency
// return just the number, without any unit appended

Compound: CCCCCCP(=O)(CCC(C)C)C(C)C (stereo not shown)
System Under Test: tongue of human volunteers
Relative Potency: 1

What Relative Potency value was documented for this compound, CCCCCP(=O)(C(C)CC)C(C)CC (stereo not shown) [n-C5H11 / sec-C4H9 / sec-C4H9, disec-butyl-n-pentyl-phosphine oxide] ?
1

Query: Relative Potency; subject: CCCCCCCP(=O)(CCCCCCC)C(C)(C)C
0.06

Data request, read-out Relative Potency, for CCCCCCCCP(=O)(C(C)CC)C(C)CC (stereo not shown)
2.5

# get_value(readout='Relative Potency', item= CCCCCCCP(=O)(C(C)CC)C(C)CC (stereo not shown) [n-C7H15 / sec-C4H9 / sec-C4H9, disec-butyl-n-heptyl-phosphine oxide] )
0.8

Returns the measured Relative Potency for the input compound. Input: CCCCCCP(=O)(C(C)C)C(C)CC (stereo not shown)
2.5

Fill blank: measured Relative Potency of the compound CCC(C)P(=O)(CCC(C)C)CCC(C)C (stereo not shown) [iso-C5H11 / iso-C5H11 / sec-C4H9, di-isopentyl-sec-butyl phosphine oxide] is ____.
0.06

Which Relative Potency value is on record for CCCCCCP(=O)(CCC)C(C)(C)C (stereo not shown) ?
0.36

Look up Relative Potency: CCCCCCP(=O)(CC)CCCCCC
0.06

Relative Potency lookup needed for CCCCCCP(=O)(CCCC)C(C)(C)C (stereo not shown) , thanks.
0.8

If you can, please state the reported Relative Potency value of CCCCCCCCP(=O)(C(C)C)C(C)CC (stereo not shown) .
10

Can you look up the measured Relative Potency of CCCCCCCCCP(=O)(CC(C)C)CC(C)C for me?
0.025

Field request: Relative Potency | item: CCCCCCCP(=O)(C(C)C)C(C)CC (stereo not shown)
10

Could you tell me which Relative Potency is on file for CCCCCCP(=O)(C(C)CC)C(C)CC (stereo not shown) ?
1

Query (compound): CCCCCCCP(=O)(CCC(C)C)C(C)C (stereo not shown) ; field requested: Relative Potency
1

----------
# Test system: tongue of human volunteers
# Test Name: Cooling sensations when applied to the tongue of human volunteers
# Format: in vivo
# Measurement Context: reciprocal of threshold, normalized to unity for analogs with 1.25 μg/ml
Let's look at some compounds and their measured Relative Potency.

Item Smiles: CCCP(=O)(CCC)CCC(C)C
Result: <0.005
--
Item Smiles: CCCCCP(=O)(CC)CCCCC
Result: <0.008
--
Item Smiles: CCCCCCCCP(=O)(CCCCCC)CCCCCC
Result: <0.005

Here's the next entry for you.
What Relative Potency value was documented for this compound, CCCCCCCCCCP(=O)(CCC(C)C)CCC(C)C ?
<0.005
